test system: 100 A. baumannii strains (50 MDR, 50 non-MDR); assay: MIC broth microdilution at IHMA Europe, panel of 100 strains; format: cell-based; settings: Acinetobacter baumannii, A. baumannii IHMA 1913773, Kenya 2018, Non-MDR; read-out: MIC
reported_metric: MIC (µg/mL)

- compound: "CO/N=C(\\C(=O)N[C@@H]1C(=O)N2C(C(=O)[O-])=C(C[N+]3(C)CCCC3)CS[C@H]12)c1csc(N)n1 [Cefepime, cefepime]"
  target_under_test: "100 A. baumannii strains (50 MDR, 50 non-MDR)"
  reported_metric: "MIC"
  censor_symbol: "="
  endpoint_result: 1
- compound: "COc1c(N2C[C@@H]3CCCN[C@@H]3C2)c(F)cc2c(=O)c(C(=O)O)cn(C3CC3)c12"
  target_under_test: "100 A. baumannii strains (50 MDR, 50 non-MDR)"
  reported_metric: "MIC"
  censor_symbol: "≤"
  endpoint_result: 0.5
- compound: "CN(C)c1cc(NC(=O)CNC(C)(C)C)c(O)c2c1C[C@H]1C[C@H]3[C@H](N(C)C)C(O)=C(C(N)=O)C(=O)[C@@]3(O)C(O)=C1C2=O"
  target_under_test: "100 A. baumannii strains (50 MDR, 50 non-MDR)"
  reported_metric: "MIC"
  censor_symbol: "="
  endpoint_result: 0.25
- compound: "Cc1[nH]c(C(=O)Nc2nc3c(N4[C@@H]5CC[C@H]4COC5)cc(C(=O)O)cc3s2)c(Cl)c1Cl"
  target_under_test: "100 A. baumannii strains (50 MDR, 50 non-MDR)"
  reported_metric: "MIC"
  censor_symbol: "="
  endpoint_result: 2
- compound: "C[C@@H](O)[C@H]1C(=O)N2C(C(=O)O)=C(SCCNC=N)C[C@H]12"
  target_under_test: "100 A. baumannii strains (50 MDR, 50 non-MDR)"
  reported_metric: "MIC"
  censor_symbol: "≤"
  endpoint_result: 0.25
- compound: "C[C@@H](O)[C@H]1C(=O)N2C(C(=O)O)=C(S[C@@H]3CN[C@H](C(=O)N(C)C)C3)[C@H](C)[C@H]12"
  target_under_test: "100 A. baumannii strains (50 MDR, 50 non-MDR)"
  reported_metric: "MIC"
  censor_symbol: "="
  endpoint_result: 0.25
